test system: K98450-129-R-PDC complex spheroid growth, percent test/control; test: Anticancer human tumor K98450-129-R-PDC patient-derived colon adenocarcinoma cell line growth inhibition [RAS]; conditions: curve of first compound; second compound 0.01 µM
Measured IC50, listed per entry for reference.
Answer in nM, number only, no unit symbol.

Q: Quick check: IC50 of Nc1ccn(C2OC(CO)C(O)C2(F)F)c(=O)n1 (configuration not stated) + C=CC(=O)N1CCN(c2nc(OCC3CCCN3C)nc3c(F)c(-c4nc(N)cc(C)c4C(F)(F)F)c(Cl)cc23)C(C)C1 ?
Result: 33.7

Q: # repeat for Cc1nc(N2CCC3(CC2)COC(C)C3N)c(CO)nc1Sc1ccnc(N)c1Cl (configuration not stated) + C=CC(=O)N1CCN(c2nc(OCC3CCCN3C)nc3c(F)c(-c4nc(N)cc(C)c4C(F)(F)F)c(Cl)cc23)C(C)C1
Result: 235

Q: Param item: C=CC(=O)Nc1cc(Nc2nccc(-c3cn(C)c4ccccc34)n2)c(OC)cc1N(C)CCN(C)C + C=CC(=O)N1CCN(c2nc(OCC3CCCN3C)nc3c(F)c(-c4nc(N)cc(C)c4C(F)(F)F)c(Cl)cc23)C(C)C1
Result: 151

Q: Likewise for CCN1CCN(Cc2ccc(Nc3ncc(F)c(-c4cc(F)c5nc(C)n(C(C)C)c5c4)n3)nc2)CC1 + C=CC(=O)N1CCN(c2nc(OCC3CCCN3C)nc3c(F)c(-c4nc(N)cc(C)c4C(F)(F)F)c(Cl)cc23)C(C)C1 ?
Result: 177

###

test system: K98450-129-R-PDC complex spheroid growth, percent test/control; experiment: Anticancer human tumor K98450-129-R-PDC cell line growth inhibition [RAS]; conditions: second compound 0.00949 µM; first compound 0.1 µM; stronger effect = lower value;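 further: spheroids exposed to agents for seven days before the viability readout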;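 on viability, T/C: luminescence used as a proxy for viable cell amount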
Exam item: assign Satisfied to entries whose viability, T/C is below 50% and Not satisfied to entries at or above 50%. Note that a value of exactly 50% receives Not satisfied.

molecule	tested.target	class.label
CCC(CC)c1cc(NC2CCC(N)C2)n2nccc2n1 (stereo not drawn) + CCn1c(-c2cc(N3CCN(C)CC3)cnc2C(C)OC)c2c3cc(ccc31)-c1csc(n1)CC(NC(=O)C1CC1C)C(=O)N1CCCC(N1)C(=O)OCC(C)(C)C2	K98450-129-R-PDC complex spheroid growth, percent test/control	Not satisfied
C=CC(=O)N1CCN(c2nc(OCC3CCCN3C)nc3c(F)c(-c4nc(N)cc(C)c4C(F)(F)F)c(Cl)cc23)C(C)C1 (stereo not drawn) + CCn1c(-c2cc(N3CCN(C)CC3)cnc2C(C)OC)c2c3cc(ccc31)-c1csc(n1)CC(NC(=O)C1CC1C)C(=O)N1CCCC(N1)C(=O)OCC(C)(C)C2	K98450-129-R-PDC complex spheroid growth, percent test/control	Satisfied

Q: hey, is viability, T/C for C[C@@H](NC(=O)c1ncnc(N)c1Cl)c1ncc(C(=O)Nc2cc(C(F)(F)F)c(Cl)cn2)s1 + CCn1c(-c2cc(N3CCN(C)CC3)cnc2C(C)OC)c2c3cc(ccc31)-c1csc(n1)CC(NC(=O)C1CC1C)C(=O)N1CCCC(N1)C(=O)OCC(C)(C)C2 lower than 50% or not?
Result: Not satisfied

Q: What about O=C(c1ccc(F)c(F)c1Nc1ccc(I)cc1F)N1CC(O)([C@@H]2CCCCN2)C1 + CCn1c(-c2cccnc2C(C)OC)c2c3cc(ccc31)N1CCOC(CC(NC(=O)C(C(C)C)N(C)C(=O)C3(F)CCN(C(=O)C#CC(C)(C)N(C)C)CC3)C(=O)N3CCCC(N3)C(=O)OCC(C)(C)C2)C1 ?
Result: Satisfied

###

system: K98450-129-R-PDC complex spheroid growth, percent test/control; assay: Anticancer human tumor K98450-129-R-PDC cell line growth inhibition [RAS]; settings: second compound 0.0949 µM; first compound 0.0316 µM; stronger effect = lower value;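 further: spheroids exposed to agents for seven days before the viability readout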;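 on viability, T/C: luminescence used as a proxy for viable cell amount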
# reported viability, T/C; entries follow
Respond numerically; units are % and should not be typed.

Q: Any idea what its viability, T/C is? The molecule is C=CC(=O)Nc1cc(Nc2nccc(-c3cn(C)c4ccccc34)n2)c(OC)cc1N(C)CCN(C)C + CCn1c(-c2cc(N3CCN(C)CC3)cnc2C(C)OC)c2c3cc(ccc31)-c1csc(n1)CC(NC(=O)C1CC1C)C(=O)N1CCCC(N1)C(=O)OCC(C)(C)C2
Result: 14.1

Q: Follow-up item: Nc1ccn(C2OC(CO)C(O)C2(F)F)c(=O)n1 (configuration not stated) + CCn1c(-c2cc(N3CCN(C)CC3)cnc2C(C)OC)c2c3cc(ccc31)-c1csc(n1)CC(NC(=O)C1CC1C)C(=O)N1CCCC(N1)C(=O)OCC(C)(C)C2
Result: 14.4

###

viability, T/C values by entry
test system: K98450-129-R-PDC complex spheroid growth, percent test/control; test: Anticancer human tumor K98450-129-R-PDC cell line growth inhibition [RAS]; conditions: second compound 0.0949 µM; first compound 0.1 µM; stronger effect = lower value;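 further: spheroids exposed to agents for seven days before the viability readout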;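 on viability, T/C: luminescence used as a proxy for viable cell amount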
Write the answer as a number in %, unit excluded.

Take a look at these entries with their results.
compound	viability, T/C [%]
CC(C)NCC(C(=O)N1CCN(c2ncnc3c2C(C)CC3O)CC1)c1ccc(Cl)cc1 (stereo not drawn) + CCn1c(-c2cc(N3CCN(C)CC3)cnc2C(C)OC)c2c3cc(ccc31)-c1csc(n1)CC(NC(=O)C1CC1C)C(=O)N1CCCC(N1)C(=O)OCC(C)(C)C2	24.3
CC(=O)OC12COC1CC(O)C1(C)C(=O)C(O)C3=C(C)C(OC(=O)C(O)C(NC(=O)OC(C)(C)C)c4ccccc4)CC(O)(C(OC(=O)c4ccccc4)C21)C3(C)C (stereo not drawn) + CCn1c(-c2cccnc2C(C)OC)c2c3cc(ccc31)N1CCOC(CC(NC(=O)C(C(C)C)N(C)C(=O)C3(F)CCN(C(=O)C#CC(C)(C)N(C)C)CC3)C(=O)N3CCCC(N3)C(=O)OCC(C)(C)C2)C1	26.9

Please examine the following record next.
Q: Entry under review: CC(C)n1nc(-c2ccc3oc(N)nc3c2)c2c(N)ncnc21 + CCn1c(-c2cc(N3CCN(C)CC3)cnc2C(C)OC)c2c3cc(ccc31)-c1csc(n1)CC(NC(=O)C1CC1C)C(=O)N1CCCC(N1)C(=O)OCC(C)(C)C2 . Reported viability, T/C?
Result: 11.1

###

system: K98450-129-R-PDC complex spheroid growth, percent test/control; test: Anticancer human tumor K98450-129-R-PDC cell line growth inhibition [RAS]; conditions: second compound 0.00949 µM; first compound 0.00316 µM; stronger effect = lower value;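 further: spheroids exposed to agents for seven days before the viability readout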;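 on viability, T/C: luminescence used as a proxy for viable cell amount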
Documented viability, T/C across a set of molecules
Entry rule: numbers only, all in %.

molecule	viability, T/C (%)
CC(C)n1nc(-c2ccc3oc(N)nc3c2)c2c(N)ncnc21 + CCn1c(-c2cccnc2C(C)OC)c2c3cc(ccc31)N1CCOC(CC(NC(=O)C(C(C)C)N(C)C(=O)C3(F)CCN(C(=O)C#CC(C)(C)N(C)C)CC3)C(=O)N3CCCC(N3)C(=O)OCC(C)(C)C2)C1	34.8
Nc1ccn(C2OC(CO)C(O)C2(F)F)c(=O)n1 (configuration not stated) + CCn1c(-c2cccnc2C(C)OC)c2c3cc(ccc31)N1CCOC(CC(NC(=O)C(C(C)C)N(C)C(=O)C3(F)CCN(C(=O)C#CC(C)(C)N(C)C)CC3)C(=O)N3CCCC(N3)C(=O)OCC(C)(C)C2)C1	49.1
CCN1CCN(Cc2ccc(Nc3ncc(F)c(-c4cc(F)c5nc(C)n(C(C)C)c5c4)n3)nc2)CC1 + CCn1c(-c2cccnc2C(C)OC)c2c3cc(ccc31)N1CCOC(CC(NC(=O)C(C(C)C)N(C)C(=O)C3(F)CCN(C(=O)C#CC(C)(C)N(C)C)CC3)C(=O)N3CCCC(N3)C(=O)OCC(C)(C)C2)C1	49.7
O=C(c1ccc(F)c(F)c1Nc1ccc(I)cc1F)N1CC(O)([C@@H]2CCCCN2)C1 + CCn1c(-c2cc(N3CCN(C)CC3)cnc2C(C)OC)c2c3cc(ccc31)-c1csc(n1)CC(NC(=O)C1CC1C)C(=O)N1CCCC(N1)C(=O)OCC(C)(C)C2	67.8
O=C(c1ccc(F)c(F)c1Nc1ccc(I)cc1F)N1CC(O)([C@@H]2CCCCN2)C1 + CCn1c(-c2cccnc2C(C)OC)c2c3cc(ccc31)N1CCOC(CC(NC(=O)C(C(C)C)N(C)C(=O)C3(F)CCN(C(=O)C#CC(C)(C)N(C)C)CC3)C(=O)N3CCCC(N3)C(=O)OCC(C)(C)C2)C1	41.7

Q: Tell me the measured viability, T/C of C=CC(=O)N1CCN(c2nc(OCC3CCCN3C)nc3c(F)c(-c4nc(N)cc(C)c4C(F)(F)F)c(Cl)cc23)C(C)C1 (configuration not stated) + CCn1c(-c2cccnc2C(C)OC)c2c3cc(ccc31)N1CCOC(CC(NC(=O)C(C(C)C)N(C)C(=O)C3(F)CCN(C(=O)C#CC(C)(C)N(C)C)CC3)C(=O)N3CCCC(N3)C(=O)OCC(C)(C)C2)C1 , please.
Result: 52.8

Q: Query C=CC(=O)Nc1cc(Nc2nccc(-c3cn(C)c4ccccc34)n2)c(OC)cc1N(C)CCN(C)C + CCn1c(-c2cccnc2C(C)OC)c2c3cc(ccc31)N1CCOC(CC(NC(=O)C(C(C)C)N(C)C(=O)C3(F)CCN(C(=O)C#CC(C)(C)N(C)C)CC3)C(=O)N3CCCC(N3)C(=O)OCC(C)(C)C2)C1 next
Result: 39.2
